Values from paper PMC8869984

test system: K. pneumoniae ATCC 13883; test: micro-dilution broth method (MIC, MBC); type: cell-based, Klebsiella pneumoniae; conditions: K. pneumoniae ATCC 13883
measuredEndpoint: MIC (µg/mL)
I only need the number, in µg/mL, no unit after it.

QUERY: # query: MIC of entry O=[N+]([O-])[O-].[Ag+] [AgNO3, Silver nitrate]
RESULT: 7.8

QUERY: # query: MIC of entry Cc1ncc([N+](=O)[O-])n1CCO.Cc1ncc([N+](=O)[O-])n1CCO.O=[N+]([O-])[O-].[Ag+] [[Ag(MTZ)2NO3]]
RESULT: 15.6

QUERY: # query: MIC of entry O=S(=O)([O-])[O-].[Ag+].[Ag+] [Ag2SO4, silver sulfate]
RESULT: 31.3

Further cases:
QUERY: # query: MIC of entry Cc1ncc([N+](=O)[O-])n1CCO.Cc1ncc([N+](=O)[O-])n1CCO.Cc1ncc([N+](=O)[O-])n1CCO.Cc1ncc([N+](=O)[O-])n1CCO.O=S(=O)([O-])[O-].[Ag+].[Ag+] [[Ag(MTZ)2]2SO4]
RESULT: 15.6

====

tested on: M. luteus ATCC 10240; experiment: micro-dilution broth method (MIC, MBC); assay type: cell-based, Micrococcus luteus; conditions: M. luteus ATCC 10240
measuredEndpoint: MIC (µg/mL)
I only need the number, in µg/mL, no unit after it.

Sample answers from the record:
QUERY: # query: MIC of entry O=S(=O)([O-])[O-].[Ag+].[Ag+] [Ag2SO4, silver sulfate]
RESULT: 15.6

QUERY: # query: MIC of entry Cc1ncc([N+](=O)[O-])n1CCO.Cc1ncc([N+](=O)[O-])n1CCO.O=[N+]([O-])[O-].[Ag+] [[Ag(MTZ)2NO3]]
RESULT: 7.8

QUERY: # query: MIC of entry Cc1ncc([N+](=O)[O-])n1CCO.Cc1ncc([N+](=O)[O-])n1CCO.Cc1ncc([N+](=O)[O-])n1CCO.Cc1ncc([N+](=O)[O-])n1CCO.O=S(=O)([O-])[O-].[Ag+].[Ag+] [[Ag(MTZ)2]2SO4]
RESULT: 7.8

Read the next record carefully.
QUERY: # query: MIC of entry O=[N+]([O-])[O-].[Ag+] [AgNO3, Silver nitrate]
RESULT: 3.9

====

test system: S. aureus ATCC 25923; assay: micro-dilution broth method (MIC, MBC); format: cell-based, Staphylococcus aureus; conditions: S. aureus ATCC 25923, value in brackets
Recorded MIC, one value per entry.
I only need the number, in µM/mL, no unit after it.

Sample answers from the record:
QUERY: # query: MIC of entry Cc1ncc([N+](=O)[O-])n1CCO.Cc1ncc([N+](=O)[O-])n1CCO.Cc1ncc([N+](=O)[O-])n1CCO.Cc1ncc([N+](=O)[O-])n1CCO.O=S(=O)([O-])[O-].[Ag+].[Ag+] [[Ag(MTZ)2]2SO4]
RESULT: 0.014

QUERY: # query: MIC of entry O=[N+]([O-])[O-].[Ag+] [AgNO3, Silver nitrate]
RESULT: 0.049

QUERY: # query: MIC of entry O=S(=O)([O-])[O-].[Ag+].[Ag+] [Ag2SO4, silver sulfate]
RESULT: 0.05

Read the next record carefully.
QUERY: # query: MIC of entry Cc1ncc([N+](=O)[O-])n1CCO.Cc1ncc([N+](=O)[O-])n1CCO.O=[N+]([O-])[O-].[Ag+] [[Ag(MTZ)2NO3]]
RESULT: 0.049
